# assay.system: Protein C (Homo sapiens)
# assay.name: Protein C activity test
# Type: biochemical
# test.context: 1 μM; without conjugate 109
Peptide text beside a SMILES is read from it. * marks the point of attachment. Tos = Cc1ccc(S(=O)(=O)*)cc1; CH2Cl = ClC*
measured.quantity: aPC
Answers are plain numbers.

Below: 3 compounds and their reported aPC.
Cc1ccc(S(=O)(=O)N[C@@H](CC(=O)O)C(=O)N2CCC[C@H]2C(=O)N[C@@H](CCCNC(=N)N)C(=O)CCl)cc1 [3AA, tosyl-DPR-CK] (Tos-Asp-Pro-Arg-CH2Cl)    107
Cc1ccc(S(=O)(=O)N[C@H](C(=O)N[C@@H](CC(C)C)C(=O)N[C@@H](CC(=O)O)C(=O)N2CCC[C@H]2C(=O)N[C@@H](CCCNC(=N)N)C(=O)CCl)[C@@H](C)O)cc1 [5AA, tosyl-TLDPR-CK] (Tos-TLDPR-CH2Cl)    109
Cc1ccc(S(=O)(=O)N[C@@H](CC(N)=O)C(=O)N[C@@H](C)C(=O)N[C@H](C(=O)N[C@@H](CC(C)C)C(=O)N[C@@H](CC(=O)O)C(=O)N2CCC[C@H]2C(=O)N[C@@H](CCCNC(=N)N)C(=O)CCl)[C@@H](C)O)cc1 [7AA, tosyl-NATLDPR-CK] (Tos-NATLDPR-CH2Cl)    110

Please examine the following record next.
QUERY: Name the reported aPC value associated with the compound Cc1ccc(S(=O)(=O)N[C@@H](C)C(=O)N[C@H](C(=O)N[C@@H](CC(C)C)C(=O)N[C@@H](CC(=O)O)C(=O)N2CCC[C@H]2C(=O)N[C@@H](CCCNC(=N)N)C(=O)CCl)[C@@H](C)O)cc1 [6AA, tosyl-ATLDPR-CK] (Tos-ATLDPR-CH2Cl)
RESULT: 108

---

# Tested on: thrombin
# assay.name: Thrombin time test
# Format: biochemical
# test.context: 10 nM; without conjugate 13.4
Peptide text beside a SMILES is read from it. * marks the point of attachment. Tos = Cc1ccc(S(=O)(=O)*)cc1; CH2Cl = ClC*
For each of the molecules below, state its TT.
Numbers only, in s.

Cc1ccc(S(=O)(=O)N[C@@H](CC(C)C)C(=O)N[C@@H](CC(=O)O)C(=O)N2CCC[C@H]2C(=O)N[C@@H](CCCNC(=N)N)C(=O)CCl)cc1 [4AA, tosyl-LDPR-CK] (Tos-LDPR-CH2Cl)    13.5

Batch request: TT per item, same order as input.
1. Cc1ccc(S(=O)(=O)N[C@H](C(=O)N[C@@H](CC(C)C)C(=O)N[C@@H](CC(=O)O)C(=O)N2CCC[C@H]2C(=O)N[C@@H](CCCNC(=N)N)C(=O)CCl)[C@@H](C)O)cc1 [5AA, tosyl-TLDPR-CK] (Tos-TLDPR-CH2Cl)
2. Cc1ccc(S(=O)(=O)N[C@@H](CC(=O)O)C(=O)N2CCC[C@H]2C(=O)N[C@@H](CCCNC(=N)N)C(=O)CCl)cc1 [3AA, tosyl-DPR-CK] (Tos-Asp-Pro-Arg-CH2Cl)
3. Cc1ccc(S(=O)(=O)N[C@@H](CC(N)=O)C(=O)N[C@@H](C)C(=O)N[C@H](C(=O)N[C@@H](CC(C)C)C(=O)N[C@@H](CC(=O)O)C(=O)N2CCC[C@H]2C(=O)N[C@@H](CCCNC(=N)N)C(=O)CCl)[C@@H](C)O)cc1 [7AA, tosyl-NATLDPR-CK] (Tos-NATLDPR-CH2Cl)
4. Cc1ccc(S(=O)(=O)N[C@@H](C)C(=O)N[C@H](C(=O)N[C@@H](CC(C)C)C(=O)N[C@@H](CC(=O)O)C(=O)N2CCC[C@H]2C(=O)N[C@@H](CCCNC(=N)N)C(=O)CCl)[C@@H](C)O)cc1 [6AA, tosyl-ATLDPR-CK] (Tos-ATLDPR-CH2Cl)

RESULT:
1: 13.8; 2: 14.1; 3: 13.5; 4: 13.9

---

# Test system: blood coagulation (prothrombin time)
# assay.name: Prothrombin time test
# Type: biochemical
# test.context: 100 μM; most potent (1) to least potent (5)
Peptide text beside a SMILES is read from it. * marks the point of attachment. Tos = Cc1ccc(S(=O)(=O)*)cc1; CH2Cl = ClC*
Threshold-based label: Potency score in PT test under 2 gives yes, Potency score in PT test not under 2 gives no.

Past entries and their recorded results:
Cc1ccc(S(=O)(=O)N[C@@H](C)C(=O)N[C@H](C(=O)N[C@@H](CC(C)C)C(=O)N[C@@H](CC(=O)O)C(=O)N2CCC[C@H]2C(=O)N[C@@H](CCCNC(=N)N)C(=O)CCl)[C@@H](C)O)cc1 [6AA, tosyl-ATLDPR-CK] (Tos-ATLDPR-CH2Cl)    no
Cc1ccc(S(=O)(=O)N[C@@H](CC(C)C)C(=O)N[C@@H](CC(=O)O)C(=O)N2CCC[C@H]2C(=O)N[C@@H](CCCNC(=N)N)C(=O)CCl)cc1 [4AA, tosyl-LDPR-CK] (Tos-LDPR-CH2Cl)    no
Cc1ccc(S(=O)(=O)N[C@H](C(=O)N[C@@H](CC(C)C)C(=O)N[C@@H](CC(=O)O)C(=O)N2CCC[C@H]2C(=O)N[C@@H](CCCNC(=N)N)C(=O)CCl)[C@@H](C)O)cc1 [5AA, tosyl-TLDPR-CK] (Tos-TLDPR-CH2Cl)    no

Now for another entry.
QUERY: Find out if reported Potency score in PT test for Cc1ccc(S(=O)(=O)N[C@@H](CC(=O)O)C(=O)N2CCC[C@H]2C(=O)N[C@@H](CCCNC(=N)N)C(=O)CCl)cc1 [3AA, tosyl-DPR-CK] (Tos-Asp-Pro-Arg-CH2Cl) is less than 2
RESULT: yes

---

# System: thrombin
# assay.name: Thrombin time test
# Format: biochemical
# test.context: 1 μM; without conjugate 13.4
Peptide text beside a SMILES is read from it. * marks the point of attachment. Tos = Cc1ccc(S(=O)(=O)*)cc1; CH2Cl = ClC*
Hi there, I'd appreciate the recorded TT for every entry that follows.
One number for each entry, in s.

Cc1ccc(S(=O)(=O)N[C@@H](CC(C)C)C(=O)N[C@@H](CC(=O)O)C(=O)N2CCC[C@H]2C(=O)N[C@@H](CCCNC(=N)N)C(=O)CCl)cc1 [4AA, tosyl-LDPR-CK] (Tos-LDPR-CH2Cl)    14.6

For each listed entry, give its TT.
1. Cc1ccc(S(=O)(=O)N[C@@H](CC(N)=O)C(=O)N[C@@H](C)C(=O)N[C@H](C(=O)N[C@@H](CC(C)C)C(=O)N[C@@H](CC(=O)O)C(=O)N2CCC[C@H]2C(=O)N[C@@H](CCCNC(=N)N)C(=O)CCl)[C@@H](C)O)cc1 [7AA, tosyl-NATLDPR-CK] (Tos-NATLDPR-CH2Cl)
2. Cc1ccc(S(=O)(=O)N[C@@H](C)C(=O)N[C@H](C(=O)N[C@@H](CC(C)C)C(=O)N[C@@H](CC(=O)O)C(=O)N2CCC[C@H]2C(=O)N[C@@H](CCCNC(=N)N)C(=O)CCl)[C@@H](C)O)cc1 [6AA, tosyl-ATLDPR-CK] (Tos-ATLDPR-CH2Cl)
3. Cc1ccc(S(=O)(=O)N[C@H](C(=O)N[C@@H](CC(C)C)C(=O)N[C@@H](CC(=O)O)C(=O)N2CCC[C@H]2C(=O)N[C@@H](CCCNC(=N)N)C(=O)CCl)[C@@H](C)O)cc1 [5AA, tosyl-TLDPR-CK] (Tos-TLDPR-CH2Cl)

RESULT:
1: 24.1; 2: 18.5; 3: 17.8

---

I'd be grateful if you could share measured Potency score in Protein C activity test for these entries.
# assay.system: Protein C (Homo sapiens, UniProt P04070)
# Sequence (P04070 212-461 limits assumed): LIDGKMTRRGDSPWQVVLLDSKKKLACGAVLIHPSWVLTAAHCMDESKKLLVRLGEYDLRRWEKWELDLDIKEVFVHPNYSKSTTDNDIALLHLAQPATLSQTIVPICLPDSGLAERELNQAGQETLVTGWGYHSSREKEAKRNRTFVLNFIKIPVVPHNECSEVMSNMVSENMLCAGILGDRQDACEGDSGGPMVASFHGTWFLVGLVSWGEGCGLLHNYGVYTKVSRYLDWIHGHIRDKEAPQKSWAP
# Sequence (P04070 43-197 partner limits assumed): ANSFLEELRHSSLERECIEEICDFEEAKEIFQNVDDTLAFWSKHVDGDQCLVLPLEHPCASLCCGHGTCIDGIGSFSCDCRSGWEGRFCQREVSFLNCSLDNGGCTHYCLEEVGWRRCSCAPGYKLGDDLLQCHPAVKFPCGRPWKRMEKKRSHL
# assay.name: Protein C activity test
# Format: biochemical
# test.context: 100 μM; most potent (1) to least potent (5)
Peptide text beside a SMILES is read from it. * marks the point of attachment. Tos = Cc1ccc(S(=O)(=O)*)cc1; CH2Cl = ClC*
Answers are plain numbers.

Worked examples, 3 molecules total:
Cc1ccc(S(=O)(=O)N[C@H](C(=O)N[C@@H](CC(C)C)C(=O)N[C@@H](CC(=O)O)C(=O)N2CCC[C@H]2C(=O)N[C@@H](CCCNC(=N)N)C(=O)CCl)[C@@H](C)O)cc1 [5AA, tosyl-TLDPR-CK] (Tos-TLDPR-CH2Cl)    3
Cc1ccc(S(=O)(=O)N[C@@H](CC(N)=O)C(=O)N[C@@H](C)C(=O)N[C@H](C(=O)N[C@@H](CC(C)C)C(=O)N[C@@H](CC(=O)O)C(=O)N2CCC[C@H]2C(=O)N[C@@H](CCCNC(=N)N)C(=O)CCl)[C@@H](C)O)cc1 [7AA, tosyl-NATLDPR-CK] (Tos-NATLDPR-CH2Cl)    4
Cc1ccc(S(=O)(=O)N[C@@H](C)C(=O)N[C@H](C(=O)N[C@@H](CC(C)C)C(=O)N[C@@H](CC(=O)O)C(=O)N2CCC[C@H]2C(=O)N[C@@H](CCCNC(=N)N)C(=O)CCl)[C@@H](C)O)cc1 [6AA, tosyl-ATLDPR-CK] (Tos-ATLDPR-CH2Cl)    2

Attention now shifts to the item below.
QUERY: # value lookup — system Protein C (Homo sapiens, UniProt P04070), readout Potency score in Protein C activity test, item Cc1ccc(S(=O)(=O)N[C@@H](CC(=O)O)C(=O)N2CCC[C@H]2C(=O)N[C@@H](CCCNC(=N)N)C(=O)CCl)cc1 [3AA, tosyl-DPR-CK] (Tos-Asp-Pro-Arg-CH2Cl)
RESULT: 1
